Let's look at some sequences and their measured protein stability index.
assay: protein stability index of a GFP-peptide fusion (yeast GPS) (PSI 1-4); higher = more stable; sorted into four equal gates, so the index is relative within each strain; conditions: san1∆
Number only, no unit.

Below, each entry is followed by its recorded protein stability index result.
• QEHNIQDSNVMPGSQIN [SNF2] = 2.68
• IRKTPLAQKKAHLAEIQ [RPL3] = 2.77
• PPQQTYHFPIFNKYADP [RPN4] = 2.59

-- ask Hello, please tell me recorded protein stability index for this one: AFIDERASDLRMTIRTR [RRP43]
-- reply 1.24

-- ask Hello, please tell me recorded protein stability index for this one: TSIANAFRRIMISEVPS [RPC40]
-- reply 2.45

====

experiment: protein stability index of a GFP-peptide fusion (yeast GPS) (PSI 1-4); higher = more stable; sorted into four equal gates, so the index is relative within each strain; conditions: pdr5∆
# protein stability index >= 3 gives rule met, anything below gives rule not met

-- ask # check: protein stability index of MDKKILLNINGSRKVAG [SMX2] is greater than or equal to 3
-- reply rule not met

-- ask # check: protein stability index of RLNYLYQISAYQTRARQ [RPR2] is greater than or equal to 3
-- reply rule not met

-- ask # check: protein stability index of KEYELLTLQEDYIKDEQ [RPT3] is greater than or equal to 3
-- reply rule met

-- ask # check: protein stability index of ANALGGLGVNRRILAAA [SSN3] is greater than or equal to 3
-- reply rule not met

-- ask # check: protein stability index of MTVKLESITYQKIMILQ [RGR1] is greater than or equal to 3
-- reply rule not met

-- ask # check: protein stability index of SSVFLPSRKDCMEVASA [BRR2] is greater than or equal to 3
-- reply rule met

-- ask # check: protein stability index of KKEANLFPEQQNKEIKA [RPL6A] is greater than or equal to 3
-- reply rule met

-- ask # check: protein stability index of IGVIQLAHYVVTAKLLG [FAS1] is greater than or equal to 3
-- reply rule not met

====

Let's look at some sequences and their measured protein stability index.
assay: protein stability index of a GFP-peptide fusion (yeast GPS) (PSI 1-4); higher = more stable; sorted into four equal gates, so the index is relative within each strain; conditions: doa10∆
Number only, no unit.

Below, each entry is followed by its recorded protein stability index result.
* NSITKDNIDYAPMRLAT [YJL039C/NUP192] | 2.58
* SRVINVVRAASSLASQD [RRP6] | 1.98

-- ask Hello, please tell me recorded protein stability index for this one: GTCNGDITTSIMDNFLE [RPN1]
-- reply 2.77

-- ask Hello, please tell me recorded protein stability index for this one: QIQQQQQKQQQQQQQHQ [SNF5]
-- reply 2.53

====

assay: protein stability index of a GFP-peptide fusion (yeast GPS) (PSI 1-4); higher = more stable; sorted into four equal gates, so the index is relative within each strain; settings: ubr1∆
The following ranges of protein stability index define the classes used here: bottom bin (below 2), middle bin (2 to below 3), top bin (3 or more)

• NEKMQLLKDIFANNLKS [SIR4] = middle bin
• KTITSGLKYALATGNWG [RPB2] = middle bin
• LELNLSVLHSWVQLVQI [YJL039C/NUP192] = bottom bin
• YDIDEIDHSDESNRQSV [ESC2] = top bin
• ELMKLDGTEYVLSSVRE [MED6] = top bin
• AEHKYMPYTINELLEMV [BRR2] = middle bin

Consider now this further sequence.
-- ask Which bin, given its protein stability index, does IRKTPLAQKKAHLAEIQ [RPL3] occupy?
-- reply bottom bin

====

test: protein stability index of a GFP-peptide fusion (yeast GPS) (PSI 1-4); higher = more stable; sorted into four equal gates, so the index is relative within each strain; details: pdr5∆
readout kind: protein stability index
Number only, no unit.

- VVIAADTRSTQGPIVAD [PUP1]: 3.29
- VKSLRQGKSKLIIIAAN [RPL30]: 1.4
- VSVRKHLERNRKDKDAK [RPS13]: 3.31

-- ask Hello, please tell me recorded protein stability index for this one: TRNSNNLAIVELVRLLI [BRR2]
-- reply 2.29

====

test: protein stability index of a GFP-peptide fusion (yeast GPS) (PSI 1-4); higher = more stable; sorted into four equal gates, so the index is relative within each strain; conditions: pdr5∆
Let's look at some sequences and their measured protein stability index.
Number only, no unit.

Below, each entry is followed by its recorded protein stability index result.
- DDYYKEIIGGGSKSASK [ISW2]: 3.09
- VVAAAEDDDNEQHEEKA [QCR6]: 2.98
- SNSSELEPDYQAPFSTS [MED1]: 2.97
- NDKSEVLKVYSMINNSN [SRB8]: 2.91
- QPKRNLSRYVKWPEYVR [RPL8A]: 2.98

# context switch: different sequence, same protein stability index
-- ask Hello, please tell me recorded protein stability index for this one: KGNFRTKPFENVEKYPT [SNU114]
-- reply 3

====

experiment: protein stability index of a GFP-peptide fusion (yeast GPS) (PSI 1-4); higher = more stable; sorted into four equal gates, so the index is relative within each strain; settings: ubr1∆
readout kind: protein stability index
Number only, no unit.

Below, each entry is followed by its recorded protein stability index result.
• HKVQTKLTRELEKKFPD [RPS7B] = 3.07
• VLKVDKRFMNTSQNPQR [BRR2] = 2.99
• KVTKIWSKESNYDCKVI [PRP28] = 2.97
• EVTFKNANIFSSVKCFG [FAS1] = 3.06
• DDDDNNESSSNTTVISD [DIS3] = 2.91
• SAAELERLDKDKDRDTR [SNF5] = 2.95
• SRNFSTRDEETTKLAFL [SIR4] = 2.97
• EINAVFNELCDPESRTQ [POP1] = 2.93
• YNHNDGGDGRDYKGAKL [RRI1] = 2.96
• KAELIKPIQNGEIIDIS [ARP9] = 2.92

# context switch: different sequence, same protein stability index
-- ask Hello, please tell me recorded protein stability index for this one: NVGDNNSTASSSNISPE [ARP7]
-- reply 3.08

====

test: protein stability index of a GFP-peptide fusion (yeast GPS) (PSI 1-4); higher = more stable; sorted into four equal gates, so the index is relative within each strain; conditions: ubr1∆
readout kind: protein stability index
Number only, no unit.

Below, each entry is followed by its recorded protein stability index result.
• NDENDDEFYINVDKNLN [RPN14] = 3.05
• DHKRFIVFHNEFSEHTF [DIS3] = 3.02
• FDQAGKKVSRRNARATR [RPL13A] = 2.34
• FQTPFRRRREGKTDYYQ [RPL5] = 3.03
• CELLKLTNEDPPGLMYL [SSN2] = 3.36

-- ask Hello, please tell me recorded protein stability index for this one: MNETLNLKVELKEQSEQ [SMC4]
-- reply 3.42

-- ask Hello, please tell me recorded protein stability index for this one: QRGEDDLTFKLADILKA [RPO21]
-- reply 2.1

-- ask Hello, please tell me recorded protein stability index for this one: RTDQYTIDNIDSENFSF [YMR129W/POM152]
-- reply 3.01

====

experiment: protein stability index of a GFP-peptide fusion (yeast GPS) (PSI 1-4); higher = more stable; sorted into four equal gates, so the index is relative within each strain; conditions: san1∆
# protein stability index >= 3 gives rule met, anything below gives rule not met

Illustrative cases are given below, each with its answer.
* KKIKGKSIQDIVGLATL [SRP21] | rule met
* LLNILSGLPTCDYYNTF [RPN2] | rule not met
* SSNTNNNTNNNNTNTGA [SWI1] | rule met

-- ask # check: protein stability index of LNTKSIQIDEETENSES [MCD1] is greater than or equal to 3
-- reply rule not met

-- ask # check: protein stability index of KPNLNYFKSILLNKNTG [SWI1] is greater than or equal to 3
-- reply rule not met

-- ask # check: protein stability index of KSSNDTIEHAADITDGN [YCG1] is greater than or equal to 3
-- reply rule met

-- ask # check: protein stability index of SRRPEPKKFGGKGARSR [RPS16A] is greater than or equal to 3
-- reply rule met

-- ask # check: protein stability index of AFNDSCVNLSLFDARFE [SRB8] is greater than or equal to 3
-- reply rule met

-- ask # check: protein stability index of SLISVLEASLNSITKDN [YJL039C/NUP192] is greater than or equal to 3
-- reply rule not met

-- ask # check: protein stability index of KLTSEETVFNYRLMIKR [GRR1] is greater than or equal to 3
-- reply rule not met

-- ask # check: protein stability index of KLEPKEIVRDILHTKES [SIR4] is greater than or equal to 3
-- reply rule not met

-- ask # check: protein stability index of NHPELQGITRNVVNYLS [RPC17] is greater than or equal to 3
-- reply rule not met

-- ask # check: protein stability index of EKPAPVRTHMRNMIIVP [RPS15] is greater than or equal to 3
-- reply rule not met

-- ask # check: protein stability index of MIAKEVKTSPDAKKCIA [FAS1] is greater than or equal to 3
-- reply rule not met

-- ask # check: protein stability index of IEHPMTSAIEVLVGSCA [RPN1] is greater than or equal to 3
-- reply rule not met

-- ask # check: protein stability index of SSSMDMQANTNALRRNL [SSN3] is greater than or equal to 3
-- reply rule met

-- ask # check: protein stability index of DFIKFDQIAVCEISGSI [BRN1] is greater than or equal to 3
-- reply rule not met
